So I've got a bunch of compounds here, and I need their pIC50 values.
Target: human TREK-1 (Homo sapiens)
Construct: expressed in transfected cells
Sequence (O95069 1-426): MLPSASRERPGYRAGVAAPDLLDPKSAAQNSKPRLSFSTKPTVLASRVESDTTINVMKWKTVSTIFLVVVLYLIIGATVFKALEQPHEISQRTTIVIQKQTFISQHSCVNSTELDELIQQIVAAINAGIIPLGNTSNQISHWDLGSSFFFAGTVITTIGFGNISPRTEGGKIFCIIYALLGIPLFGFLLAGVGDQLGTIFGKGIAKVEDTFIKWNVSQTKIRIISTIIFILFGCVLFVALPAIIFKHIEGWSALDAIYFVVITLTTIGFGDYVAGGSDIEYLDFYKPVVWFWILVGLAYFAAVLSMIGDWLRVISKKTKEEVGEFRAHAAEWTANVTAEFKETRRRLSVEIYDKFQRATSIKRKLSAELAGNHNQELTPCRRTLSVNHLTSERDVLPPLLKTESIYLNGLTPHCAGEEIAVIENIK
Experiment: TREK-1 Thallium (Tl+) flux assay, Method 1
Format: cell-based
Settings: TREK-1 Thallium (Tl+) flux assay; values without footnote *12 are Method 1
Answers are plain numbers, as −log10 of the molar value.

Solved entries (count: 6):
| compound | recorded measurement |
| --- | --- |
| Cc1cc(C#Cc2ccccc2)cnc1NC(=O)c1c(Cl)cnn1-c1ccc2c(cnn2C)c1 | 7.10 |
| Cc1cc(C#Cc2ccccc2)cnc1NC(=O)c1c(Cl)cnn1[C@H]1CC[C@H](NC(=O)C(C)C)CC1 | 6.54 |
| CC(C)C(=O)N1CCC(CCn2ncc(Cl)c2C(=O)Nc2ncc(C#Cc3ccccc3)cc2F)CC1 | 6.64 |
| O=C(Nc1ncc(C#Cc2ccc(F)cc2)cc1F)c1c(Cl)cnn1[C@H]1CC[C@@H](NC(=O)C2COCCO2)CC1 (stereo partly drawn) | 7.10 |
| CC(=O)N1CCC([C@H](C)n2ncc(Cl)c2C(=O)Nc2ncc(C#Cc3ccccc3)cc2C)CC1 | 7.00 |
| O=C(Nc1ncc(C#Cc2cccs2)cc1F)c1c(Cl)cnn1C1CCN(C(=O)C2CC2)CC1 | 6.66 |

Please supply pIC50 for each of the following items, keeping them in order.
1. CC(C)C(=O)N1CCOC(Cn2ncc(Cl)c2C(=O)Nc2ncc(C#Cc3ccccc3)cc2F)C1 (stereo not drawn)
2. CC(=O)N1CCC(Cn2ncc(Cl)c2C(=O)Nc2ncc(C#Cc3ccccc3)cc2F)C(F)(F)C1 (stereo not drawn)
3. Cc1cc(C#Cc2cccs2)cnc1NC(=O)c1c(Cl)cnn1CC1CCN(C(=O)C2CC2)CC1
4. Cc1cc(C#Cc2ccc(F)cc2)cnc1NC(=O)c1c(Cl)cnn1[C@H]1CC[C@@H](NC(=O)C(C)C)CC1
5. CCNC(=O)N1C[C@H]2C[C@H](n3ncc(Cl)c3C(=O)Nc3ncc(C#Cc4cccc(F)c4)cc3C)C[C@H]2C1

Output line:
[6.64, 6.54, 6.85, 6.68, 6.66]

Look up pIC50 for the entries below, preserving their order.
1. CC(=O)N1CC2(CC(n3ncc(Cl)c3C(=O)Nc3ncc(C#Cc4ccccc4)cc3F)C2)C1
2. CC(=O)N[C@H]1C[C@H](n2ncc(Cl)c2C(=O)Nc2ncc(C#Cc3ccccc3)cc2C)C1
3. CC(=O)N1CC(Cn2ncc(Cl)c2C(=O)Nc2ncc(C#Cc3ccccc3)cc2F)C1
4. CC(=O)N1CCC(n2ncc(Cl)c2C(=O)Nc2ncc(C#Cc3ccc(F)cc3)cc2C)CC1C (stereo not drawn)
5. CC(=O)N1CC[C@@H](Cn2ncc(Cl)c2C(=O)Nc2ncc(C#Cc3ccccc3)cc2C)[C@@H](F)C1
6. CC(=O)N[C@H]1CC[C@H](n2ncc(Cl)c2C(=O)Nc2ncc(C#Cc3ccc(F)cc3)cc2C)CC1

Output line:
[6.70, 6.62, 6.74, 6.82, 6.72, 6.54]

# batch: return pIC50 for each of the 6 compounds below
1. CC(C)C(=O)N1CC[C@H](Cn2ncc(Cl)c2C(=O)Nc2ncc(C#Cc3ccccc3)cc2F)[C@H](F)C1
2. Cc1cc(C#Cc2ccccc2)cnc1NC(=O)c1c(Cl)cnn1CCC1CCN(C(=O)C(C)C)CC1
3. CC(=O)N1CC[C@H](n2ncc(Cl)c2C(=O)Nc2ncc(C#Cc3ccccc3)cc2C)C[C@@H]1C (single isomer, unassigned) [Compound 31]
4. Cc1cc(C#Cc2ccccc2)cnc1NC(=O)c1c(Cl)cnn1CCCC#N
5. CC(=O)N1C[C@H]2C[C@H](n3ncc(Cl)c3C(=O)Nc3ncc(C#Cc4cccs4)cc3C)C[C@H]2C1
6. CC(=O)N1CCC(CCn2ncc(Cl)c2C(=O)Nc2ncc(C#Cc3ccccc3)cc2F)CC1

Output line:
[6.85, 6.54, 7.00, 6.57, 6.70, 6.72]

List pIC50 for every entry below, keeping the order given.
1. CC(=O)N1CCC(F)(Cn2ncc(Cl)c2C(=O)Nc2ncc(C#Cc3ccccc3)cc2C)CC1
2. CC(=O)N1CCC(C(C)n2ncc(Cl)c2C(=O)Nc2ncc(C#Cc3ccccc3)cc2C)CC1 (stereo not drawn)
3. Cc1cc(C#Cc2ccc(F)cc2)cnc1NC(=O)c1c(Cl)cnn1C1CC2(C1)CN(C(=O)C1COCCO1)C2 (stereo not drawn)

Output line:
1: 6.40; 2: 7.00; 3: 6.66

Okay, here is my list. What is pIC50 for each of these?
1. Cc1cc(C#Cc2ccccc2)cnc1NC(=O)c1c(Cl)cnn1C[C@@H]1CCOC1
2. CC(=O)N1CC(n2ncc(Cl)c2C(=O)Nc2ncc(C#Cc3ccccc3)cc2C)C1
3. CC(=O)N1CC[C@@H](n2ncc(Cl)c2C(=O)Nc2ncc(C#Cc3ccccc3)cc2F)[C@H](F)C1

Output line:
1. 6.59
2. 6.68
3. 7.15

Input line: Send back human TREK-1 (Homo sapiens) pIC50 of CC(C)C(=O)N[C@H]1CC[C@H](n2ncc(Cl)c2C(=O)Nc2ncc(C#Cc3ccccc3)cc2F)CC1 only.
Output line: 6.70

Source: patent US20240182445A1
